src = paper PMC4822341

Attribute: IC50
Tgt: GR (Homo sapiens, UniProt P04150)
Construct: expressed in transfected cells; host or cells: AD293
Sequence (P04150 1-777): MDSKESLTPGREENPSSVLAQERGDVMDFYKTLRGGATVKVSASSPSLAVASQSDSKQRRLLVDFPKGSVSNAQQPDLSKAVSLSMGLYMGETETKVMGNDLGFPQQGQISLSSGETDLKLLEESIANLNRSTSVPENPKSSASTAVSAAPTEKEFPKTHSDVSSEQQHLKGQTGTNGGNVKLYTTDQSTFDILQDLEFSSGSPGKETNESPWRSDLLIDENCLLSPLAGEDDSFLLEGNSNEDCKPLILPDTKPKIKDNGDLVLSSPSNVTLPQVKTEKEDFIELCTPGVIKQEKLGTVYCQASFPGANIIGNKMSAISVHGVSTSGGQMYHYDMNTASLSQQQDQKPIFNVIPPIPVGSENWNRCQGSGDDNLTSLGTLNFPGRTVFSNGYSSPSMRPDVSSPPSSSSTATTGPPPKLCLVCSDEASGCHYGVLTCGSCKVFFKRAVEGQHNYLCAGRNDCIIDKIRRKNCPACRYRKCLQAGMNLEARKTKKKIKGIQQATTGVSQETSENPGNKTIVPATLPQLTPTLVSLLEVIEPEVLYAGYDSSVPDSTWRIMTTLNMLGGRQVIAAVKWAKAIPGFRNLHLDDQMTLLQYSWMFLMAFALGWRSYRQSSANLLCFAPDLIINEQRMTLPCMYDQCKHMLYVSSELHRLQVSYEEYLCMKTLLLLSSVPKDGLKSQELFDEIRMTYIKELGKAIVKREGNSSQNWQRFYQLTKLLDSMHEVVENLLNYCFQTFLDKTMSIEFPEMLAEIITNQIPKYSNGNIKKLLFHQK
Experiment notes: In vitro H3-Dex competition GR ligand-binding assay
Measurement parameters: H3-DEX 15 nM, GR cytosol
Source text: The in vitro GR binding assay is similar to the one described previously. […] Data were plotted as a standard competition curve by GraphPad Prism 5.
Property label: IC50 (nM)

[[record]]
molecule = "CON(C)C(=O)C1(OC(=O)c2ccco2)C(C)CC2C3CC(F)C4=Cc5c(cnn5-c5ccccc5)CC4(C)C3(F)C(O)CC21C (centres unmarked)"
property_label = "IC50"
recorded_result = 6.1

[[record]]
molecule = "CON(C)C(=O)C1(OC(=O)c2ccco2)CCC2C3CCC4=Cc5c(cnn5-c5ccccc5)CC4(C)C3C(O)CC21C (centres unmarked)"
property_label = "IC50"
recorded_result = 4.1

